SYSTEM NAME: HIV-1 YU-2 gp120 (HIV-1 (YU-2), UniProt P35961)
MEASUREMENT NOTES: SPR
Give measured IC50 for each item. Keep answers brief.

Lookup result for Fab m18 N31A (HCDR1) (Fab, V domains shown) VH: VQLLESGPGVVKPSETLSLTCTVSGASVNAYYWTWVRQPPGKGLEWIGNVYDSGDTNYNPSLSSRLSLSMDTSKNQFSLRLSSVTAADTATYYCARYHRHFIRGPLSFDYWGRGTLVTVSS VL: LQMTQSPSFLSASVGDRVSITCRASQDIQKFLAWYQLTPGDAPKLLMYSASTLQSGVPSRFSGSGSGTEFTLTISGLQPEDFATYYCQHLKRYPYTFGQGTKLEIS ; measured IC50: > 1000 nM

Entry under test: Fab m18 I100A (HCDR3) (Fab, V domains shown) VH: VQLLESGPGVVKPSETLSLTCTVSGASVNNYYWTWVRQPPGKGLEWIGNVYDSGDTNYNPSLSSRLSLSMDTSKNQFSLRLSSVTAADTATYYCARYHRHFARGPLSFDYWGRGTLVTVSS VL: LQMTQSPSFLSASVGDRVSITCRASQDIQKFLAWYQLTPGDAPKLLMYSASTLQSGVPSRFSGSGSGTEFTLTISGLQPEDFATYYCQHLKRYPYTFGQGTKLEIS . Its IC50 was > 500 nM

Lab note: measured IC50 of Fab m18 R24A (LCDR1) (Fab, V domains shown) VH: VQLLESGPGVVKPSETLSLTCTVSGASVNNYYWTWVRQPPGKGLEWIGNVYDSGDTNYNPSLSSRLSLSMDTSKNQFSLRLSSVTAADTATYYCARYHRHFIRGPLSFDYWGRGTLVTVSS VL: LQMTQSPSFLSASVGDRVSITCAASQDIQKFLAWYQLTPGDAPKLLMYSASTLQSGVPSRFSGSGSGTEFTLTISGLQPEDFATYYCQHLKRYPYTFGQGTKLEIS was > 1000 nM

For Fab m18 R100aE (HCDR3) (Fab, V domains shown) VH: VQLLESGPGVVKPSETLSLTCTVSGASVNNYYWTWVRQPPGKGLEWIGNVYDSGDTNYNPSLSSRLSLSMDTSKNQFSLRLSSVTAADTATYYCARYHRHFIEGPLSFDYWGRGTLVTVSS VL: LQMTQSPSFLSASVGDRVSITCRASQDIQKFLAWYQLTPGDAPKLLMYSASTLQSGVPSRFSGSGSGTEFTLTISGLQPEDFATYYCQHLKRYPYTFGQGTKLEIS the binder record lists IC50 as > 1000 nM
